- Tested on: Kasumi-1
- Experiment Summary: MI-219 apoptosis induction in AML cell lines
- Type: cell-based, human
- Recorded Conditions: Kasumi-1 AML cell line, p53 (exon5-9) mut
Measured Attribute: IC50

Short answer on Kasumi-1 for `CC(C)(C)C[C@H]1N[C@@H](C(=O)NCCN2CCOCC2)[C@H](c2cccc(Cl)c2F)[C@@]12C(=O)Nc1cc(Cl)ccc12` , IC50: > 10 µM

Short answer on Kasumi-1 for `CC(C)(C)C[C@H]1N[C@@H](C(=O)NCC[C@H](O)CO)[C@H](c2cccc(Cl)c2)[C@@]12C(=O)Nc1cc(Cl)c(F)cc12.Cl` , IC50: > 20 µM

Short answer on Kasumi-1 for COc1ccc(C2=N[C@@H](c3ccc(Cl)cc3)[C@@H](c3ccc(Cl)cc3)N2C(=O)N2CCNC(=O)C2)c(OC(C)C)c1 [Nutlin, reference compound] , IC50: > 10 µM

---

- Test system: MOLM-13
- Experiment Summary: MI-219 apoptosis induction in AML cell lines
- Assay type: cell-based, human
- Recorded Conditions: MOLM-13 AML cell line, p53 wt
Answer each item with its documented IC50.
Lab book: enter the figure in µM, no units written.

Per the records, this compound ( CC(C)(C)C[C@H]1N[C@@H](C(=O)NCCN2CCOCC2)[C@H](c2cccc(Cl)c2F)[C@@]12C(=O)Nc1cc(Cl)ccc12 [MI-63] ) has IC50 equal to 2.85

Per the records, this compound ( CC(C)(C)C[C@H]1N[C@@H](C(=O)NCC[C@H](O)CO)[C@H](c2cccc(Cl)c2)[C@@]12C(=O)Nc1cc(Cl)c(F)cc12.Cl [MI-219] ) has IC50 equal to 2.66

Per the records, this compound ( COc1ccc(C2=N[C@@H](c3ccc(Cl)cc3)[C@@H](c3ccc(Cl)cc3)N2C(=O)N2CCNC(=O)C2)c(OC(C)C)c1 [Nutlin, reference compound] ) has IC50 equal to 4.04

---

- Test system: AML blasts
- Experiment Summary: Ex vivo AML blasts MDM2 inhibitor apoptosis assay (annexin-V/PI FACS)
- Format: cell-based, human
- Recorded Conditions: relapsed AML cases, exclusive of p53 exon 5-9 mutations; read-out: mean IC50
Measured Attribute: IC50 (µM)
Lab book: enter the figure in µM, no units written.

Short answer on AML blasts for CC(C)(C)C[C@H]1N[C@@H](C(=O)NCC[C@H](O)CO)[C@H](c2cccc(Cl)c2)[C@@]12C(=O)Nc1cc(Cl)c(F)cc12.Cl [MI-219] , IC50: 4.4

---

- Test system: AML-193
- Experiment Summary: MI-219 apoptosis induction in AML cell lines
- Type: cell-based, human
- Recorded Conditions: AML-193 AML cell line, p53 (exon5-9) mut
pIC50: −log10 of the molar value.
Measured Attribute: pIC50

Per the records, this compound ( CC(C)(C)C[C@H]1N[C@@H](C(=O)NCCN2CCOCC2)[C@H](c2cccc(Cl)c2F)[C@@]12C(=O)Nc1cc(Cl)ccc12 [MI-63] ) has pIC50 equal to < 5.00

Per the records, this compound ( CC(C)(C)C[C@H]1N[C@@H](C(=O)NCC[C@H](O)CO)[C@H](c2cccc(Cl)c2)[C@@]12C(=O)Nc1cc(Cl)c(F)cc12.Cl [MI-219] ) has pIC50 equal to < 4.70

Per the records, this compound ( COc1ccc(C2=N[C@@H](c3ccc(Cl)cc3)[C@@H](c3ccc(Cl)cc3)N2C(=O)N2CCNC(=O)C2)c(OC(C)C)c1 [Nutlin, reference compound] ) has pIC50 equal to < 5.00

---

- Test system: AML blasts
- Experiment Summary: Ex vivo AML blasts MDM2 inhibitor apoptosis assay (annexin-V/PI FACS)
- Format: cell-based, human
- Recorded Conditions: tAML, exclusive of cases with p53 exon 5-9 mutations; 40 hours; read-out: mean IC50
Measured Attribute: pIC50
Kindly note that pIC50 refers to -log10 of the concentration in mol/L and answer with the value alone.

Per the records, this compound ( `CC(C)(C)C[C@H]1N[C@@H](C(=O)NCC[C@H](O)CO)[C@H](c2cccc(Cl)c2)[C@@]12C(=O)Nc1cc(Cl)c(F)cc12.Cl` ) has pIC50 equal to 5.32

---

Answer each item with its documented IC50.
- System: MONO-MAC-6
- Experiment Summary: MI-219 apoptosis induction in AML cell lines
- Type: cell-based, human
- Recorded Conditions: MONO-MAC-6 AML cell line, p53 (exon5-9) mut

Per the records, this compound ( `CC(C)(C)C[C@H]1N[C@@H](C(=O)NCCN2CCOCC2)[C@H](c2cccc(Cl)c2F)[C@@]12C(=O)Nc1cc(Cl)ccc12` ) has IC50 equal to > 10 µM

Per the records, this compound ( `CC(C)(C)C[C@H]1N[C@@H](C(=O)NCC[C@H](O)CO)[C@H](c2cccc(Cl)c2)[C@@]12C(=O)Nc1cc(Cl)c(F)cc12.Cl` ) has IC50 equal to > 20 µM

Per the records, this compound ( COc1ccc(C2=N[C@@H](c3ccc(Cl)cc3)[C@@H](c3ccc(Cl)cc3)N2C(=O)N2CCNC(=O)C2)c(OC(C)C)c1 [Nutlin, reference compound] ) has IC50 equal to > 10 µM
